Value source: patent US12466827B2

Target: human recombinant HDAC6 (Homo sapiens)
Sequence (Q9UBN7 whole entry): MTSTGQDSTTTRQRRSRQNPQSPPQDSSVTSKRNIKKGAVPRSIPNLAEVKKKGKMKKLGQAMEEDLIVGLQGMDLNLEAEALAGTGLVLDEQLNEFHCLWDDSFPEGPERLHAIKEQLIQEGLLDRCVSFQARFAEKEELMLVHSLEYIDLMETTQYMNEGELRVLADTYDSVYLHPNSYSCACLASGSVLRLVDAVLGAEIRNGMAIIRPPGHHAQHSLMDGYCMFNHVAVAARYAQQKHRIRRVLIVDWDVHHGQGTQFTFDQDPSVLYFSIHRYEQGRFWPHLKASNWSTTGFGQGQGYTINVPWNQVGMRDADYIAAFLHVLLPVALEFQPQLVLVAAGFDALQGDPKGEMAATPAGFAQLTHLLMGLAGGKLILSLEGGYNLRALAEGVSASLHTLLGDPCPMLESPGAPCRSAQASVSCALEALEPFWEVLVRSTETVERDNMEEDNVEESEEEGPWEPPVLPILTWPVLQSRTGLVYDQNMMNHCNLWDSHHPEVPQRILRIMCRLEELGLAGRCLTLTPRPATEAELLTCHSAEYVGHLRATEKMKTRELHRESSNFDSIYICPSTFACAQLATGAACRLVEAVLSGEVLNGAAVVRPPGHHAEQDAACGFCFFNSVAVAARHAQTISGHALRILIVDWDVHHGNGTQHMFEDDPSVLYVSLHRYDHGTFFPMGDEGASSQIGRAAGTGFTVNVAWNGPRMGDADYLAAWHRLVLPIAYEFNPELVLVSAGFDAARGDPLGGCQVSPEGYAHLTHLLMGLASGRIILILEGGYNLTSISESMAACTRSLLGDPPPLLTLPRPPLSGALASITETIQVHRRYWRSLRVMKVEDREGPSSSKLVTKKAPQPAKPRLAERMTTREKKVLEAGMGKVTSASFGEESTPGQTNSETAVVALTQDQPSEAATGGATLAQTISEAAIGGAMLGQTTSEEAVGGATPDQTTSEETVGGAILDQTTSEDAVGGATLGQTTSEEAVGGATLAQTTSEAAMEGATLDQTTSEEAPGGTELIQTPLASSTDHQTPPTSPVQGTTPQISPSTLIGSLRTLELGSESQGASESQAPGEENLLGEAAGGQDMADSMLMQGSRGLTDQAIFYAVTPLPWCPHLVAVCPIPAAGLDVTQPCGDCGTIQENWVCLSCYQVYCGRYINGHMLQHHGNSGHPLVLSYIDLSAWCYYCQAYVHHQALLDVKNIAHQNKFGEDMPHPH
Assay: In vitro HDAC enzyme activity inhibition assay (HDAC6)
Details: same protocol as the HDAC1 test, human recombinant HDAC6 (Calbiochem)
Method: In order to confirm the selectivity of the compounds represented by Chemical Formula I of the present invention to HDAC6 through HDAC1 and HDAC6 enzyme activity inhibition experiments, a comparison experiment was performed using the material that has already been developed as a control group. HDAC enzyme activity was measured using the HDAC Fluorimetric Drug Discovery Kit (Enzo Life Sciences, Inc., BML-AK511, 516). […]
Measured quantity: IC50 (µM)

// known answers, use as guide
O=S(=O)(N1CCN(C2COC2)CC1)N(Cc1cn2ccc(-c3nnc(C(F)F)o3)cc2n1)c1cccc(F)c1 ... 0.0678
O=S(=O)(C1CCN(C2CCCCC2)CC1)N(Cc1cn2ccc(-c3nnc(C(F)F)o3)cc2n1)c1ccccc1 ... 0.116
O=S(=O)(C1CCN(c2ncccn2)CC1)N(Cc1cn2ccc(-c3nnc(C(F)F)o3)cc2n1)c1cccc(F)c1 ... 0.108

P = O=C(C1CCC1)N1CCC(S(=O)(=O)N(Cc2cn3ccc(-c4nnc(C(F)F)o4)cc3n2)c2cccc(F)c2)CC1
Q = CS(=O)(=O)N1CCN(S(=O)(=O)N(Cc2cn3ccc(-c4nnc(C(F)F)o4)cc3n2)c2ccccc2)CC1
Consider entries P and Q . Which has the numerically lower IC50? Lab log: write the label of the selected item as the result.
P
(P: 0.0922 µM, Q: 0.232 µM)

P = O=C(C1CCC1)N1CCC(S(=O)(=O)N(Cc2cn3ccc(-c4nnc(C(F)F)o4)cc3n2)c2ccccc2)CC1
Q = CC(CO)N1CCC(S(=O)(=O)N(Cc2cn3ccc(-c4nnc(C(F)F)o4)cc3n2)c2cccc(F)c2)CC1 (centres unmarked)
Exercise: compare P and Q ; which one has the greater IC50? Choose, then provide that item's label.
P
(P: 0.128 µM, Q: 0.0788 µM)

P = COC(=O)N1CCC(S(=O)(=O)N(Cc2cn3ccc(-c4nnc(C(F)F)o4)cc3n2)c2ccccc2)CC1
Q = O=C(CO)N1CCN(S(=O)(=O)N(Cc2cn3ccc(-c4nnc(C(F)F)o4)cc3n2)c2cccc(F)c2)CC1
From the items above, decide which of P and Q has the lower IC50 reading. Please identify the chosen entry by its label.
Q

* * *

# pIC50 per entry
target: human recombinant HDAC1 (Homo sapiens, UniProt Q13547); assay: In vitro HDAC enzyme activity inhibition assay (HDAC1); settings: Fluor de Lys-SIRT1 substrate 10 μM, 30° C., 60 minutes, fluorescence
Sequence (Q13547 whole entry): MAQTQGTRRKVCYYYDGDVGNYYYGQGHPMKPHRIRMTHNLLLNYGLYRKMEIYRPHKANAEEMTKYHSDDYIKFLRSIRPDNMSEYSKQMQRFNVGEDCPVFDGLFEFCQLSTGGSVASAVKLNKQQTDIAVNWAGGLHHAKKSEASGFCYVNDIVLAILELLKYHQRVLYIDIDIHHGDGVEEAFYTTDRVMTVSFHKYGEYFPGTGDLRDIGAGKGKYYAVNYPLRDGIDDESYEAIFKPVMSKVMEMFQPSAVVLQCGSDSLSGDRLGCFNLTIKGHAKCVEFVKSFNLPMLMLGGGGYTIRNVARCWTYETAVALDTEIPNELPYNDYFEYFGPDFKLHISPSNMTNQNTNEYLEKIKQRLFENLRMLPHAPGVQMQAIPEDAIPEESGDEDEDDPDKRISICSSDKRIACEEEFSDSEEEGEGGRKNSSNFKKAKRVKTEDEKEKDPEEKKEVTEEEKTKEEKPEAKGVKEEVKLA
pIC50: −log10 of the molar value.

CC(=O)N1CCC(S(=O)(=O)N(Cc2cn3ccc(-c4nnc(C(F)F)o4)cc3n2)c2cccc(F)c2)CC1 ... < 4.30
O=S(=O)(N1CCN(C2CCC2)CC1)N(Cc1cn2ccc(-c3nnc(C(F)F)o3)cc2n1)c1ccccc1 ... < 4.30
O=S(=O)(N1CCN(c2ccccn2)CC1)N(Cc1cn2ccc(-c3nnc(C(F)F)o3)cc2n1)c1ccccc1 ... < 4.30

Turning now to a further record.
With human recombinant HDAC1 (Homo sapiens, UniProt Q13547) as the test system, O=C(C1COC1)N1CCN(S(=O)(=O)N(Cc2cn3ccc(-c4nnc(C(F)F)o4)cc3n2)c2cccc(F)c2)CC1 showed pIC50 of < 4.30
